These data points were gathered from paper PMC4336329.

system-name: human ether-à-go-go-related gene (hERG) potassium channel (human);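 note: peak tail current of the secondary pulse compared with the same well before compound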
Sequence (Q12809 whole entry, looked up): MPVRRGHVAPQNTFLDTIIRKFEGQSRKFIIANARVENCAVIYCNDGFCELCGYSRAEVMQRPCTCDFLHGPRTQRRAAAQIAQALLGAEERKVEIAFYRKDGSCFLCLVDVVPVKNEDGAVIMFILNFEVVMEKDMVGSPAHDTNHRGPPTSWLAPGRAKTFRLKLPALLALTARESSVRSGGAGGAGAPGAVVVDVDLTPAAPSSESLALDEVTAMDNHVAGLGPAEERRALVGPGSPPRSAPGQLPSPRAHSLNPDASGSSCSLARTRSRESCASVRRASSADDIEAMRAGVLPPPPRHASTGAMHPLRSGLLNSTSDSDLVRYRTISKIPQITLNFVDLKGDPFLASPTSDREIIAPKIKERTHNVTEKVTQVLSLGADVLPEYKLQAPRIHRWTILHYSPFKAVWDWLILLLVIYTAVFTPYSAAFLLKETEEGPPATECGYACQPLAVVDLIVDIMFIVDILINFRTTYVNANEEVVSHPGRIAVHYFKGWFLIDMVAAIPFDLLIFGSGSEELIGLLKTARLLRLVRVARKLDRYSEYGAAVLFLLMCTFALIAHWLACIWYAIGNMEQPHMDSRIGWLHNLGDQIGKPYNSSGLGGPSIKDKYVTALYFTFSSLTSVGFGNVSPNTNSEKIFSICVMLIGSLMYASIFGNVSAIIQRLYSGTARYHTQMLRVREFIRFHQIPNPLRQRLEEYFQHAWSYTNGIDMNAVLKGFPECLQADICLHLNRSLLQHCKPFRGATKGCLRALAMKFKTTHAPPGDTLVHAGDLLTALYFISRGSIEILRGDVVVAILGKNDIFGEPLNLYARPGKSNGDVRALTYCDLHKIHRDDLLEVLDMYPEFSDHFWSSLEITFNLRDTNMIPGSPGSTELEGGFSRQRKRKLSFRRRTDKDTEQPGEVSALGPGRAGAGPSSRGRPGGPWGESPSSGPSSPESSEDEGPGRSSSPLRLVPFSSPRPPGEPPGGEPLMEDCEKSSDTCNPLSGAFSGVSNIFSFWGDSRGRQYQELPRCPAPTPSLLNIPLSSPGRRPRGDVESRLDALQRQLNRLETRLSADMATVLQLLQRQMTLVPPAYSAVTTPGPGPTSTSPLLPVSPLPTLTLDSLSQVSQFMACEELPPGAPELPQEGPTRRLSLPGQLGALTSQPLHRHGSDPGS
procedure-details: primary screen, population patch clamp on CHO cells stably expressing hERG; higher = less effect of the substance
Among all 310,000 compounds or so, about 14,000 (4.5%) showed an effect of 50% or more. The effect is printed as a negative number. What follows is part of a selection rich in strong results, with near analogues and random picks from the rest.
measured-attribute: hERG current change (%, negative = inhibition) at 10uM (%)
Give bare numbers, in %.

compound | measure-unit | value-reported
O=C(NC1CCCc2ccccc21)C1CCN(c2c3c(nc4ncnn24)CCC3)CC1 (stereo not shown) | % | -31.3
CCCCOC1CC(c2ccc(OCc3ccc(OC)cc3)c(OC)c2)N(C)O1 (stereo not shown) | % | 3.47
O=C(Nc1ccc(Oc2ccccc2)cc1)C1CCN(c2c3c(nc4ncnn24)CCC3)CC1 | % | -55.6
Cc1ccc(-c2[nH]ncc2CN2CCN(C(=O)c3cccs3)CC2)cc1C | % | -62.5
CCOc1ccccc1NC(=O)NNS(=O)(=O)c1cc(C)ccc1C | % | 6.71
O=C(NCc1ccc2c(c1)OCO2)C1CCN(S(=O)(=O)c2ccc(Br)s2)CC1 | % | -24
CCCn1c(=O)c2c(nc3n2CCCN3Cc2ccccc2)n(C)c1=O | % | -34.3
CCN1C(=O)C(=Cc2ccc(C)s2)C(=O)N(CC)C1=S | % | 5.09

Here are 7 compounds. What values of hERG current change (%, negative = inhibition) at 10uM were reported for them?
1. CCCn1c(=O)c2c(nc3n2CCCN3CCc2ccccc2)n(C)c1=O
2. COc1cc2c(cc1NC(=O)/C=C/c1ccccc1)oc1ccccc12
3. O=C(CSc1nnc(-c2cccs2)o1)N1CCc2ccccc21
4. COc1ccc(CCn2c(O)c(C=Nc3ccccc3F)c(=O)[nH]c2=O)cc1OC
5. CCOC(=O)N1CCN(Cc2cn[nH]c2-c2cccc3ccccc23)CC1
6. COc1ccc(CN2CCN(C(=O)c3cccs3)CC2)c(OC)c1OC
7. COc1ccc(-c2[nH]ncc2CN2CCN(C(=O)c3cccs3)CC2)c(F)c1

[-65.4, 18.8, -10.5, 20.3, -4.57, -6.53, -21.5]

Give measured hERG current change (%, negative = inhibition) at 10uM for every item shown.
1. CC1CCC(NC(=O)C2CCN(c3c4c(nc5ncnn35)CCC4)CC2)CC1 (stereo not shown)
2. CC1CCN(C(=O)CSCC(=O)Nc2nc(-c3cccs3)cs2)CC1

1: -19.3; 2: -20.6

Provide reported hERG current change (%, negative = inhibition) at 10uM for each item, in the same order as listed.
1. COc1ccc(S(=O)(=O)n2cccc2)c(OC)c1
2. CCOC(=O)N1CCN(Cc2cn[nH]c2-c2cc3ccccc3o2)CC1
3. CNC(=O)CNC(=O)Nc1ccc(Cl)c(Cl)c1
4. Cc1ccc(NC(=O)CSc2ccc(-c3cccnc3)nn2)cc1
5. CCN(C1CCCCC1)S(=O)(=O)c1ccc(C(=O)O)cc1

1: 5.65; 2: -34.4; 3: 9.11; 4: -12.3; 5: 6.74
